targetDesc: Retinaldehyde dehydrogenase 3 (Homo sapiens) (UniProt P47895)
test: qHTS for Inhibitors of the Aldehyde Dehydrogenase Family (ALDH1A3) Validation screen (AID 2061312); note: nearly all actives have a fitted effect of over 45% in size
testContext: ALDH1A3 enzyme inhibition qHTS validation, fluorescence; series mostly up to 84.7 µM
Inconclusive results are not listed. The source made the active and inactive calls. Calls come from the whole dose curve; as a rule, active = well fitted inhibition curve with a large enough effect; inconclusive = small, poorly fitted or top-dose-only effect; inactive = no such curve, though single readings can be large or run the other way.
Bench note: report the call from active, inactive

Past entries and their recorded results:
COCCOc1cc2nc[nH]c(=O)c2cc1OCCOC ... inactive
COc1cc2ncnc(Oc3ccc(CC(=O)Nc4cnn(C(C)C)c4)cc3)c2cc1OC ... inactive
Cc1cc(C)nc(NS(=O)(=O)c2ccc(NC(=S)NC(=O)COc3ccc(Br)cc3Cl)cc2)n1 ... inactive
C[C@@H](O)[C@H](NC(=O)c1ccc(C#Cc2ccc(CN3CCOCC3)cc2)cc1)C(=O)NO ... inactive
CN1CCC(COc2cnc(-c3cccc(Cn4nc(-c5cccc(C#N)c5)ccc4=O)c3)nc2)CC1 ... inactive

// return assay outcome for CN1CCN(C2=Nc3ccccc3Nc3ccc(O)cc32)CC1
inactive

// return assay outcome for O=C(NC1CCN(CC(F)(F)F)CC1)c1ccc(-c2cccc(F)c2)nc1
inactive

// return assay outcome for CN(C)c1cccc(Oc2cnc(Nc3cccc(O)c3)nc2)c1
active

// return assay outcome for CCC(=O)N1CCN(C(=O)c2ccccc2)CC1
inactive
